assay: Chemical stability in phosphate buffer at pH 7.4 assessed as unchanged drug level at 0.5 mM after 3 hrs by RP-HPLC analysis; assay type: physicochemical; conditions: read-out: Stability
Assay Endpoint: remaining at 3 h, 500 µM (%)
Respond with the bare value in %.

The cases that follow already have their remaining at 3 h, 500 µM on record.
INSERT INTO assay_data (compound, reported) VALUES
  ('CC(=O)Oc1ccccc1C(=O)OCOC(=O)c1ccc(CCCO[N+](=O)[O-])cc1', 100),
  ('CC(=O)Oc1ccccc1C(=O)OCOC(=O)c1ccc(S(=O)(=O)CCCO[N+](=O)[O-])cc1', 70),
  ('CC(=O)Oc1ccccc1C(=O)OCOC(=O)c1ccc(SCCCO[N+](=O)[O-])cc1', 99),
  ('CC(=O)Oc1ccccc1C(=O)OCOC(=O)c1cccc(OCCCO[N+](=O)[O-])c1', 98),
  ('CC(=O)Oc1ccccc1C(=O)OCOC(=O)c1ccc(CC(CO[N+](=O)[O-])O[N+](=O)[O-])cc1 (stereo not drawn)', 99);

Data request: Recorded remaining at 3 h, 500 µM of CC(=O)Oc1ccccc1C(=O)OCOC(=O)CCCCC(CO[N+](=O)[O-])O[N+](=O)[O-] (stereo not drawn) , please.
Data returned: 99

Data request: Recorded remaining at 3 h, 500 µM of `CC(=O)Oc1ccccc1C(=O)OCOC(=O)c1ccc(OCCCO[N+](=O)[O-])cc1` , please.
Data returned: 99

Data request: Recorded remaining at 3 h, 500 µM of CC(=O)Oc1ccccc1C(=O)OCOC(=O)CCCC(CO[N+](=O)[O-])O[N+](=O)[O-] (stereo not drawn) , please.
Data returned: 99

====

experiment: Antiaggregatory activity in human platelet rich plasma assessed as inhibition of collagen-induced platelet aggregation preincubated 10 mins before collagen challenge; assay type: functional
# pIC50 values compiled below
// pIC50 is dimensionless: -log10 of concentration (M)

Data request: Recorded pIC50 of `CC(=O)Oc1ccccc1C(=O)OCOC(=O)c1cccc(OCCCO[N+](=O)[O-])c1` , please.
Data returned: 4.00

Data request: Recorded pIC50 of `CC(=O)Oc1ccccc1C(=O)OCOC(=O)c1ccc(SCCCO[N+](=O)[O-])cc1` , please.
Data returned: 4.35

Data request: Recorded pIC50 of `CC(=O)Oc1ccccc1C(=O)OCOC(=O)c1ccccc1OCCCO[N+](=O)[O-]` , please.
Data returned: 3.79

Data request: Recorded pIC50 of `CC(=O)Oc1ccccc1C(=O)OCOC(=O)c1ccc(OCCCO[N+](=O)[O-])cc1` , please.
Data returned: 3.86

====

assay: Chemical stability in phosphate buffer at pH 7.4 assessed as unchanged drug level at 0.5 mM after 3 hrs by RP-HPLC analysis; assay type: physicochemical; settings: read-out: Stability
Assay Endpoint: remaining at 3 h, 500 µM (%)
Respond with the bare value in %.

The cases that follow already have their remaining at 3 h, 500 µM on record.
INSERT INTO measurements (molecule, assay_endpoint, result_unit, reported) VALUES
  ('CC(=O)Oc1ccccc1C(=O)OCOC(=O)c1ccc(SCC(CO[N+](=O)[O-])O[N+](=O)[O-])cc1 (centres undefined)', 'remaining at 3 h, 500 µM', '%', 98),
  ('CC(=O)Oc1ccccc1C(=O)OCOC(=O)c1cccc(CO[N+](=O)[O-])n1', 'remaining at 3 h, 500 µM', '%', 60),
  ('CC(=O)Oc1ccccc1C(=O)OCOC(=O)c1ccccc1OCCCO[N+](=O)[O-]', 'remaining at 3 h, 500 µM', '%', 98),
  ('CC(=O)Oc1ccccc1C(=O)OCOC(=O)c1ccc([S+]([O-])CCCO[N+](=O)[O-])cc1 (centres undefined)', 'remaining at 3 h, 500 µM', '%', 90),
  ('CC(=O)Oc1ccccc1C(=O)OCOC(=O)CCCCCO[N+](=O)[O-]', 'remaining at 3 h, 500 µM', '%', 99);

Now consider a different molecule.
Data request: Recorded remaining at 3 h, 500 µM of CC(=O)Oc1ccccc1C(=O)OC(C)OC(=O)c1ccc(SCCCO[N+](=O)[O-])cc1 (centres undefined) , please.
Data returned: 99
